Reference source for all entries: PubChem BioAssay (NCI)

- System: CCRF-CEM leukemia
- measurement-notes: NCI-60 one-dose screen, 48 h
- experimental-setup: 10 µM
The panel holds about 83,000 compounds, 20% with a hit somewhere; the sample as a whole holds those more often. The source made the active and inactive calls. Rule for the calls: active = growth percent below 10; inactive = the rest.
// allowed return values: y for active, n for inactive

QUERY: Query: recorded result category for COc1ccc2c(c1)/C(=C/c1c(-c3cc(OC)c(OC)c(OC)c3)nc3sccn13)C(=O)N2 in this test
RESULT: y

QUERY: Query: recorded result category for CCC(C)(C)c1ccc(OCCCCCCN2CCN(c3ccc(C)c(Cl)c3)CC2)cc1 in this test
RESULT: y

QUERY: Query: recorded result category for CCN(CC)c1ccc2nc3ccc(N=Nc4ccc(O)cc4)cc3[n+](-c3ccccc3)c2c1 in this test
RESULT: n

QUERY: Query: recorded result category for COc1ccccc1Nc1nnc(COc2ccc(CNC(=O)CCCC/C=C/C(C)C)cc2OC)o1 in this test
RESULT: n

QUERY: Query: recorded result category for CC(=O)c1cc(Nc2cc(C)nc(N)n2)cc(C(C)=O)c1 in this test
RESULT: n

QUERY: Query: recorded result category for COc1cc(OC)c(NC(=O)n2ncc3cc(Nc4ncnc5ccccc45)ccc32)cc1Cl in this test
RESULT: n

QUERY: Query: recorded result category for CCCCCCCCCCN1CC2CCCCC2C1 (stereo not given) in this test
RESULT: n

QUERY: Query: recorded result category for Cc1c(Cc2ccccc2)c(=O)oc2c(C)c(OCC(=O)n3nc(C#N)cc3N)ccc12 in this test
RESULT: n

QUERY: Query: recorded result category for COC(=O)c1ccc2[nH]c(O)c(C(=Nc3ccc(N(C)C(=O)CN4CCN(C)CC4)cc3)c3ccc(C)cc3)c2c1 in this test
RESULT: y

QUERY: Query: recorded result category for COc1ccc(C(=O)N2N=C(c3ccc(Br)cc3)CC2c2cn(-c3ccccc3)nc2-c2ccccc2)cc1 (stereo not given) in this test
RESULT: n

QUERY: Query: recorded result category for CC(=O)Nc1nc(C)c(C(=O)NNS(=O)(=O)c2ccccc2)s1 in this test
RESULT: n

QUERY: Query: recorded result category for CNCCCNCCCCNCCCN1C(=O)c2ccc3c4c(ccc(c24)C1=O)C(=O)N(CCCNCc1ccccc1OC)C3=O in this test
RESULT: n

QUERY: Query: recorded result category for O=C(Nc1ccccc1)Nc1ccc(Nc2ncnc3sc4c(c23)CCCC4)cc1 in this test
RESULT: n

QUERY: Query: recorded result category for COc1cccc2c1n([O-])c1cccc(OC)c1[n+]2=O in this test
RESULT: y

QUERY: Query: recorded result category for O=C(CBr)OCc1ccc([N+](=O)[O-])o1 in this test
RESULT: n

QUERY: Query: recorded result category for O=C(Nc1ccc(-n2cc(-c3ccncc3)c(-c3ccc(Cl)c(O)c3)n2)cc1)Nc1cc(C(F)(F)F)cc(C(F)(F)F)c1 in this test
RESULT: y

QUERY: Query: recorded result category for O=C(NC1CCN(Cc2ccccc2)CC1)c1cc(-c2cccnc2)nc2ccc(Cl)cc12 in this test
RESULT: n

QUERY: Query: recorded result category for COc1ccc(C2=NN(C(=O)c3cc(-c4ccc(C)cc4)nc4ccccc34)C(c3cc(-c4ccccc4)nn3-c3ccccc3)C2)cc1 (stereo not given) in this test
RESULT: n

QUERY: Query: recorded result category for O=C(Nc1cccc2[nH]c(C(F)(F)F)nc12)c1ccc(F)cc1 in this test
RESULT: n

QUERY: Query: recorded result category for Oc1ccccc1/C=N/N=C\c1ccccc1Cl in this test
RESULT: y
